Test system: SF-539 CNS
Test: NCI-60 one-dose screen, 48 h (100 = growth as untreated, 0 = no growth, -100 = all killed)
Details: 10 µM unless noted
About 83,000 compounds went through this panel and 20% of them were active in at least one assay; those are over-represented in the sample as a whole.
The entries below are paired with their reported growth.
test readout: growth (%)

> print(dat)
                                   molecule    value
1               CCCCOC(=O)c1cc(O)c(O)c(O)c1     48.5
2         CC(C)(C)c1ccc(OC(=O)Nc2ccccc2)cc1     90.5
3  COc1cc(C2CC(c3ccc(C)cc3)=NN2C=O)ccc1Oc1nc2c(c(=O)n(C)c(=O)n2C)n1C (stereo not given)      116
4     O=C(Cc1ccc([N+](=O)[O-])cc1)Oc1ccccc1      105
5  COc1ccc(-c2cnc(-c3ccncc3-c3cccc(OC)c3)o2)cc1  -0.0741

---

System: K-562 leukemia
Test: NCI-60 one-dose screen, 48 h (100 = growth as untreated, 0 = no growth, -100 = all killed)
Conditions: 10 µM unless noted
The panel holds about 83,000 compounds, 20% with a hit somewhere; the sample as a whole holds those more often.
The entries below are paired with their reported growth.
test readout: growth (%)

> print(dat)
                                    compound  value
 1  CC(C)CC(=O)C(CCc1ccccn1)C(C)C (configuration not stated)    107
 2  c1cn2cc(-c3ccc4ncn(C5CCCCC5)c4c3)nc(-c3ccc4c(c3)ncn4C3CCCCC3)c2n1  -4.74
 3  C=CCN1C(=O)/C(=c2\sc3n(c2=O)C2C(NN=3)N(CC)C(=O)N2CC)c2ccccc21 (configuration not stated)     10
 4          O=C(NNC(=O)c1cccc(Cl)c1)c1ccccc1    114
 5  O=[N+]([O-])c1ccc(SSc2ccc([N+](=O)[O-])cc2Cl)c(Cl)c1   77.8
 6       CCN(CC)CC(=O)Nc1c(C)cc(C(=O)NN)cc1C   94.9
 7  O=C1/C=C/[C@@H](O)[C@@H]2C[C@@H](O)C[C@H]2/C=C/CCC[C@H]([C@@H](O)CO)O1   95.2
 8  CCOC(=O)C1C(=O)C=C(c2cc(OC)c(OC)c(OC)c2)CC1c1sc(N(C)Cc2ccccc2)nc1Cl (configuration not stated)   66.4
 9  Cc1cc(-c2ccc(N=Nc3c(S(=O)(=O)O)cc4cc(S(=O)(=O)O)cc(O)c4c3O)c(C)c2)ccc1N=Nc1c(S(=O)(=O)O)cc2cc(S(=O)(=O)O)cc(O)c2c1O    125
10        O=C(O)c1cc2cc(OCc3ccccc3)ccc2[nH]1    112
11            Clc1ccc(-c2nc(-c3cccs3)no2)cc1    101
12  O=C1/C(=C/N2N=C(c3ccc(Cl)cc3)CC2c2ccccc2O)SC(=S)N1c1cccc(C(F)(F)F)c1 (configuration not stated)   42.6

---

Test system: SNB-19 CNS
Assay: NCI-60 one-dose screen, 48 h (100 = growth as untreated, 0 = no growth, -100 = all killed)
Conditions: 10 µM unless noted
The panel holds about 83,000 compounds, 20% with a hit somewhere; the sample as a whole holds those more often.
The entries below are paired with their reported growth.
test readout: growth (%)

> print(dat)
                                    compound  units.label  value
 1     O=[N+]([O-])c1ccc(N/N=C/c2ccccc2O)nc1            %   56.2
 2  O=[N+]([O-])c1ccc(N/N=C\c2ccc(O)cc2O)nc1            %   58.6
 3  CCC1N=C(N)N=C(N)N1c1ccc(Cl)cc1 (centres undefined)            %    106
 4  CCCCOc1nc2ccccc2cc1/C=C/c1cc(/C=C/c2cc3ccccc3nc2OCCCC)n(-c2ccccc2)n1            %   97.3
 5  C=C(c1ccc(C(=O)NCCCn2ccnc2)cc1)c1cc2c(cc1C)C(C)(C)CCC2(C)C            %   48.4
 6  CC(C)(c1ccccc1)c1cc(O)c(C(C)(C)c2ccccc2)cc1O            %   37.8
 7  C=CCOC(=O)C1=C(C)NC2=C(C(=O)CCC2)C1c1ccc(F)cc1 (centres undefined)            %   85.2
 8                  COc1cccc(NC(=O)OC(C)C)c1            %    116
 9             CC(C)c1ccc(-c2cnc3nonc3n2)cc1            %   40.7
10  Fc1ccc(-c2nc(-c3ccc(-c4nc5ccc(F)cc5[nH]4)cc3)no2)cc1            %   82.5
11  Cc1ccc(C)c(NC(=O)c2sc3c(=O)[nH]cnc3c2C)c1            %   91.7
12                   COc1ccc(C(=O)O)cc1.[Ag]            %    106
13  COc1ccc(-c2cnc(-c3ccncc3-c3cccc(OC)c3)o2)cc1            %   25.8
14  COc1ccc2c(c1)C1=NN(C(=O)CO)[C@H](c3ccc(OC(F)(F)F)cc3)[C@@H]1CC2            %   93.4

---

Tested on: M14 melanoma
Assay: NCI-60 one-dose screen, 48 h
Conditions: 10 µM unless noted
Compounds without any hit were thinned out: in the full panel of roughly 83,000, 20% have a hit. Activity calls are given as the source filed them. How the source made its calls: active means growth percent below 10; inactive means the rest.
Outcomes: active, inactive

compound	tested target	assigned label
CC1CCN(CCCCCOc2ccc3oc4ccc(Cl)cc4c(=O)c3c2)CC1	M14 melanoma	active
COc1ccccc1CNCCCN1C(=O)c2ccc3c4c(ccc(c24)C1=O)C(=O)N(CCCCNCCCN)C3=O	M14 melanoma	active
CC(C)(C)c1ccc(OC(=O)Nc2ccccc2)cc1	M14 melanoma	inactive
CCCCSc1ncnc2c1ncn2C1CCCCO1 (stereo not given)	M14 melanoma	inactive
O=C(Nc1cccc(C2=NCCN2)c1)c1ccc(N=Nc2ccc(C(=O)Nc3cccc(C4=NCCN4)c3)cc2)cc1	M14 melanoma	inactive
CCN(CC)c1ccc2c(cc1=O)[C@@H](NC(C)=O)CCc1cc(OC)c(OC)c(OC)c1-2	M14 melanoma	active
N/C(=C\C(=O)n1nc(-c2ccccc2)cc1N)c1ccccc1	M14 melanoma	inactive
S=C(S)Oc1cccc2cccnc12	M14 melanoma	inactive
COc1ccc(Oc2nc(Nc3ccc(N4CCOCC4)cc3)ncc2NC(=O)Nc2cccc(OC)c2)cc1	M14 melanoma	inactive
CC(NC(=O)c1ccccc1)C(=O)Nc1ccccc1 (stereo not given)	M14 melanoma	inactive
O=[N+]([O-])c1ccc(Sc2nc(Cl)nc(NC3CCCC3)n2)cc1	M14 melanoma	active
Nc1ncnc2c1N=C(c1ccc3c(c1)OCO3)CC(c1ccc(Cl)cc1)N2 (stereo not given)	M14 melanoma	inactive
CN1C(=O)NC(Cc2c[nH]c3c(Cl)cccc23)C1=O (stereo not given)	M14 melanoma	inactive
COc1ccc2nc3cc(Cl)ccc3c(NC(=O)CSc3ccc(Cl)cc3)c2c1	M14 melanoma	active
COc1ccc(-c2cnnn2-c2nonc2-n2cccc2)cc1	M14 melanoma	active
COc1cc(NC(=O)CSc2nc3ccc(Cl)cc3c(=O)n2-c2ccccc2)cc(OC)c1OC	M14 melanoma	inactive
O=c1c2cc(Br)cc(Br)c2nc(-c2ccc(Cl)cc2)n1/N=C/c1cccc(F)c1	M14 melanoma	inactive
Clc1ccc(C2=NN[C@H](c3cn(-c4ccccc4)nc3-c3ccccc3)C2)cc1	M14 melanoma	inactive
Cc1cc([N+](=O)[O-])c(C)cc1N	M14 melanoma	inactive
NC(=O)N/N=C\c1ccc([N+](=O)[O-])o1	M14 melanoma	inactive
CCCCOc1nc2ccccc2cc1/C=C/c1cc(/C=C/c2cc3ccccc3nc2OCCCC)n(-c2ccccc2)n1	M14 melanoma	inactive
CCOC(=O)C1C(=O)C=C(c2ccccc2)CC1c1sc(N(C)Cc2ccccc2)nc1Cl (stereo not given)	M14 melanoma	inactive
c1cc2c(cc1-c1cnc3nonc3n1)OCO2	M14 melanoma	inactive
C=C1C(=O)O[C@H]2[C@H]1CC/C(COC(=O)NCc1ccc(Cn3c(=O)sn(CCCl)c3=O)cc1)=C\CC[C@@]1(C)O[C@@H]21	M14 melanoma	inactive
Cn1cnc([N+](=O)[O-])c1S(=O)(=O)Oc1ccccc1	M14 melanoma	inactive
CCCCCCCCCCCCCCCC1=NCCN1	M14 melanoma	inactive
COC(=O)[C@@H](Cc1c[nH]c2ccccc12)NC(=O)/C=C/c1ccccc1	M14 melanoma	active
CNCCCn1c2c(c3ccc(Cl)cc3c1=O)C(=O)c1cc(OC)cnc1-2	M14 melanoma	inactive
CO[C@H](C(=O)[C@@H](O)[C@@H](C)O)[C@@H]1Cc2cc3cc(O[C@H]4C[C@@H](O[C@H]5C[C@@H](O)[C@H](O)C(C)O5)[C@H](O)C(C)O4)c(C)c(O)c3c(O)c2C(=O)[C@H]1O[C@H]1C[C@@H](O[C@H]2C[C@@H](O[C@H]3C[C@](C)(O)C(=O)C(C)O3)[C@@H](O)C(C)O2)[C@H](O)C(C)O1 (stereo not given in full)	M14 melanoma	active
OCCN(CCO)c1ccc2ccccc2c1	M14 melanoma	inactive
